# Test system: transient receptor potential cation channel N1 (TRPN1/NompC), Danio rerio
# Assay notes: zebrafish TRPN1 channel agonists, primary screen, cell-based, HEK293, calcium fluorescence (AID 1424);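 further: 0% = DMSO alone and 100% = 87 µM carbachol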
# Run parameters: HEK293 zebrafish TRPN1-YFP, Fluo-8 calcium fluorescence; at 3 µM; hits give high values; 100% = response to 87 µM carbachol
About 390 (0.18%) of roughly 220,000 compounds were called active. What follows is part of a selection rich in actives, with near analogues and random picks from the rest.
activation reference
Measured parameter: activation (%)

>  <Compound>
CCc1ccc(NC(=O)C(C)OC(=O)/C=C/c2cccc([N+](=O)[O-])c2)cc1 (stereo unspecified)

>  <Unit name>
%

>  <Result number>
2.04

$$$$
>  <Compound>
Nc1c(C(=O)c2cccs2)sc2nsc(SCCN3CCCCC3)c12

>  <Unit name>
%

>  <Result number>
33.7

$$$$
>  <Compound>
Cc1cc(C)n(C(=O)CCNC(=O)c2ccccc2Cl)n1

>  <Unit name>
%

>  <Result number>
0.31

$$$$
>  <Compound>
O=C(Cc1ncc(C(F)(F)F)cc1Cl)Nc1cccc(Br)c1

>  <Unit name>
%

>  <Result number>
0.3

$$$$
>  <Compound>
CCC(C)NC(=O)c1ccc(N2CCC3(CC2)OCCO3)c([N+](=O)[O-])c1 (stereo unspecified)

>  <Unit name>
%

>  <Result number>
0.89

$$$$
>  <Compound>
COc1ccc(N2C(=O)c3ccccc3NC2c2ccc(OC)c(CN3CCOCC3)c2)cc1 (stereo unspecified)

>  <Unit name>
%

>  <Result number>
0.64

$$$$
>  <Compound>
O=C(NC(Nc1nc2ccc([N+](=O)[O-])cc2s1)(C(F)(F)F)C(F)(F)F)c1ccccc1

>  <Unit name>
%

>  <Result number>
27.4

$$$$
>  <Compound>
O=C(O)CCC(=O)Nc1nc2ccc([N+](=O)[O-])cc2s1

>  <Unit name>
%

>  <Result number>
-0.08

$$$$
>  <Compound>
Cn1cc(S(=O)(=O)NC(c2ccccc2)c2ccccc2)c(=O)n(C)c1=O

>  <Unit name>
%

>  <Result number>
1.45

$$$$
>  <Compound>
CCc1c(O)cc2n(c1=O)-c1ccccc1C2(C)C

>  <Unit name>
%

>  <Result number>
1.3

$$$$
>  <Compound>
CC(C)(C)NC(=O)CN1CCC(NC(=O)C23CC4CC(CC(C4)C2)C3)CC1

>  <Unit name>
%

>  <Result number>
2.37

$$$$
>  <Compound>
Cc1cc(C)c(OCCN2CC(C)OC(C)C2)c(Br)c1 (stereo unspecified)

>  <Unit name>
%

>  <Result number>
-2.75

$$$$
>  <Compound>
COCCCNC(=O)CNC(=S)N(Cc1cc(OC)c(OC)c(OC)c1)C1CCCC1

>  <Unit name>
%

>  <Result number>
0.25

$$$$
>  <Compound>
COc1cc(OC)c(-n2cc(-c3ccc(Cl)cc3)[nH]c2=O)cc1Cl

>  <Unit name>
%

>  <Result number>
32.6

$$$$
>  <Compound>
CC(C)(C)c1cnnn1-c1ccc([N+](=O)[O-])cc1

>  <Unit name>
%

>  <Result number>
1.54

$$$$
>  <Compound>
COc1ccc(C(=O)N/N=C2\CCS(=O)(=O)c3ccc(F)cc32)cc1OC

>  <Unit name>
%

>  <Result number>
2.13

$$$$

====

# System: transient receptor potential cation channel N1 (TRPN1/NompC), Danio rerio
# Assay notes: zebrafish TRPN1 channel agonists, primary screen, cell-based, HEK293, calcium fluorescence (AID 1424);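 further: 0% = DMSO alone and 100% = 87 µM carbachol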
# Run parameters: HEK293 zebrafish TRPN1-YFP, Fluo-8 calcium fluorescence; at 3 µM; hits give high values; 100% = response to 87 µM carbachol
Screen size: about 220,000 compounds; about 390 (0.18%) were called active. The entries come from a sample that favours actives as a whole.
Some molecules, each annotated with its measured activation.

>  <Molecule>
O=C(NCCCn1ccnc1)C(=O)NCC1OCCN1S(=O)(=O)c1cc(F)ccc1F (stereo not given)

>  <activation, %>
1

$$$$
>  <Molecule>
O=C(O)CCn1c(SCc2cc(=O)n3ccccc3n2)nc2ccsc2c1=O

>  <activation, %>
0.55

$$$$
>  <Molecule>
CCOC12CC(C)(C)CC(C)(CC3=C1C(=O)CC(C)(C)C3)C2 (stereo not given)

>  <activation, %>
1.01

$$$$
>  <Molecule>
O=C(O)c1cccc(N2C(=O)Nc3ccccc3N2O)c1

>  <activation, %>
-0.51

$$$$
>  <Molecule>
COc1cc(OC)c(-n2c(C)cc(C=O)c2C)cc1Cl

>  <activation, %>
-1.14

$$$$
>  <Molecule>
CN=C1C=C/C(=N/N=c2\ccn(O)cc2C)C=C1C

>  <activation, %>
-3.14

$$$$
>  <Molecule>
CC(=O)c1ccc(-c2ccc(Cn3c(C)nc4cc(N)c(C)nc43)cc2)cc1

>  <activation, %>
0.89

$$$$
>  <Molecule>
CNC(=O)c1ccsc1NC(=O)c1ccc(S(=O)(=O)N2CCOCC2)cc1

>  <activation, %>
2.83

$$$$
>  <Molecule>
Cc1cc2nc3c(=O)n(Cc4ccccc4)c(=O)[nH]c3nc2cc1N

>  <activation, %>
37.4

$$$$
>  <Molecule>
CN(C)CCOCCOc1ccc(Cl)c2ccccc12

>  <activation, %>
1.52

$$$$

====

Listed here are compounds together with their documented activation.
# System: transient receptor potential cation channel N1 (TRPN1/NompC), Danio rerio
# Assay notes: zebrafish TRPN1 channel agonists, primary screen, cell-based, HEK293, calcium fluorescence (AID 1424);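 further: 0% = DMSO alone and 100% = 87 µM carbachol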
# Run parameters: HEK293 zebrafish TRPN1-YFP, Fluo-8 calcium fluorescence; at 3 µM; hits give high values; 100% = response to 87 µM carbachol
Screen size: about 220,000 compounds; about 390 (0.18%) were called active. The entries come from a sample that favours actives as a whole.

>  <Compound>
CCOC(=O)/C(=N\Nc1ccccc1Cl)N(C)C1CCS(=O)(=O)C1 (configuration not stated)

>  <Target system>
transient receptor potential cation channel N1 (TRPN1/NompC), Danio rerio

>  <activation (%)>
-0.61

$$$$
>  <Compound>
COc1cc(OC)cc(C(=O)N[C@H](C(=O)Nc2nc3ccccc3[nH]2)C(C)C)c1

>  <Target system>
transient receptor potential cation channel N1 (TRPN1/NompC), Danio rerio

>  <activation (%)>
-2.24

$$$$
>  <Compound>
O=C(CCc1ccccc1)Nc1ncc([N+](=O)[O-])s1

>  <Target system>
transient receptor potential cation channel N1 (TRPN1/NompC), Danio rerio

>  <activation (%)>
9.35

$$$$
>  <Compound>
CCN(Cc1ccccc1)S(=O)(=O)c1cc(C(=O)O)ccc1OC

>  <Target system>
transient receptor potential cation channel N1 (TRPN1/NompC), Danio rerio

>  <activation (%)>
-2.45

$$$$
>  <Compound>
O=C(CCN1CCN(c2ccccc2)CC1)NNC(=S)Nc1ccccc1

>  <Target system>
transient receptor potential cation channel N1 (TRPN1/NompC), Danio rerio

>  <activation (%)>
2.77

$$$$
>  <Compound>
COc1ccc(COC(=O)N/N=C(\C)CC(=O)Nc2ccc(Cl)cc2)cc1

>  <Target system>
transient receptor potential cation channel N1 (TRPN1/NompC), Danio rerio

>  <activation (%)>
-1.28

$$$$
>  <Compound>
Cc1ccc(N2CCN(S(=O)(=O)c3ccc(F)cc3)CC2)c(C)c1

>  <Target system>
transient receptor potential cation channel N1 (TRPN1/NompC), Danio rerio

>  <activation (%)>
-1.18

$$$$
>  <Compound>
O=C(CNCc1ccc(Cl)cc1)Nc1cccc(C(=O)O)c1

>  <Target system>
transient receptor potential cation channel N1 (TRPN1/NompC), Danio rerio

>  <activation (%)>
0.21

$$$$
>  <Compound>
CC(C)Cc1nc(Cl)c(C#N)c2c1CCC2

>  <Target system>
transient receptor potential cation channel N1 (TRPN1/NompC), Danio rerio

>  <activation (%)>
-2.32

$$$$
>  <Compound>
Cc1ccc(N2C(=O)S/C(=C/c3cn(C)c4ccccc34)C2=O)cc1

>  <Target system>
transient receptor potential cation channel N1 (TRPN1/NompC), Danio rerio

>  <activation (%)>
1.3

$$$$
>  <Compound>
CCN1/C(=C/c2ccc3ccc(C)cc3[n+]2CC)Sc2ccccc21

>  <Target system>
transient receptor potential cation channel N1 (TRPN1/NompC), Danio rerio

>  <activation (%)>
30.7

$$$$
>  <Compound>
COc1cc(OC)c(C(=O)NC2CCCCCC2)cc1OC

>  <Target system>
transient receptor potential cation channel N1 (TRPN1/NompC), Danio rerio

>  <activation (%)>
32.1

$$$$

From: PubChem BioAssay AID1424
